Test system: cortical neurons
Protocol Notes: [3H]GABA uptake in cultured cortical neurons
Format: cell-based
Experimental Conditions: Mus musculus, Cortical neurone; read-out: neuron uptake IC50
Measurement Kind: IC50

Entry N[C@H]1C[C@@H](C(=O)O)CC1=C(F)F [CPP-115] , IC50 reported as > 1 mM

---

Target System: GABAB receptor (Rattus norvegicus)
Sequence (Q9Z0U4 17-960 limits assumed): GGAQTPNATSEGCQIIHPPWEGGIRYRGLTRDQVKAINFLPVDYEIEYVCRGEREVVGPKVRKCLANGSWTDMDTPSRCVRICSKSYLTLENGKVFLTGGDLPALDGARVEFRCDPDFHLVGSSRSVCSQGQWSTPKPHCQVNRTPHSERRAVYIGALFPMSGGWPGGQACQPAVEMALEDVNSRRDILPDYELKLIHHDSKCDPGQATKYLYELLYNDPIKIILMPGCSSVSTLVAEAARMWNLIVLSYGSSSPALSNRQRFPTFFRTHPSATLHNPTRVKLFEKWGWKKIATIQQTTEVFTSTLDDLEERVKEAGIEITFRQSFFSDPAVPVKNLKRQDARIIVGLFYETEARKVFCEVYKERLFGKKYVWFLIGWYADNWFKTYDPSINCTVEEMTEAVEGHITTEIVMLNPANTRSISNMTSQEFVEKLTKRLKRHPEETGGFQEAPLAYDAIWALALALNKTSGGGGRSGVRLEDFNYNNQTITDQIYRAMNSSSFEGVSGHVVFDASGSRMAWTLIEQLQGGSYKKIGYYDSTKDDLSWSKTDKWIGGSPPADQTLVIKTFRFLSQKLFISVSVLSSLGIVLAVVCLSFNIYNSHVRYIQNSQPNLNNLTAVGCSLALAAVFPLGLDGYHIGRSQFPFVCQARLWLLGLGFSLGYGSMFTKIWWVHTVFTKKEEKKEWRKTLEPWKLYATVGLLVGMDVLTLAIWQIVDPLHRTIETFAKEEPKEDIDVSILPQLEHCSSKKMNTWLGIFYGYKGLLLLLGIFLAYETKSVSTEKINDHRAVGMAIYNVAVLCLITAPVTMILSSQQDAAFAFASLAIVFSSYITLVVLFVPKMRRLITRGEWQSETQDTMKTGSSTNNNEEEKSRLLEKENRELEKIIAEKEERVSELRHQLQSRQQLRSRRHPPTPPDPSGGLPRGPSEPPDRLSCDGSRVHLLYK
Sequence (O88871 41-940 partner): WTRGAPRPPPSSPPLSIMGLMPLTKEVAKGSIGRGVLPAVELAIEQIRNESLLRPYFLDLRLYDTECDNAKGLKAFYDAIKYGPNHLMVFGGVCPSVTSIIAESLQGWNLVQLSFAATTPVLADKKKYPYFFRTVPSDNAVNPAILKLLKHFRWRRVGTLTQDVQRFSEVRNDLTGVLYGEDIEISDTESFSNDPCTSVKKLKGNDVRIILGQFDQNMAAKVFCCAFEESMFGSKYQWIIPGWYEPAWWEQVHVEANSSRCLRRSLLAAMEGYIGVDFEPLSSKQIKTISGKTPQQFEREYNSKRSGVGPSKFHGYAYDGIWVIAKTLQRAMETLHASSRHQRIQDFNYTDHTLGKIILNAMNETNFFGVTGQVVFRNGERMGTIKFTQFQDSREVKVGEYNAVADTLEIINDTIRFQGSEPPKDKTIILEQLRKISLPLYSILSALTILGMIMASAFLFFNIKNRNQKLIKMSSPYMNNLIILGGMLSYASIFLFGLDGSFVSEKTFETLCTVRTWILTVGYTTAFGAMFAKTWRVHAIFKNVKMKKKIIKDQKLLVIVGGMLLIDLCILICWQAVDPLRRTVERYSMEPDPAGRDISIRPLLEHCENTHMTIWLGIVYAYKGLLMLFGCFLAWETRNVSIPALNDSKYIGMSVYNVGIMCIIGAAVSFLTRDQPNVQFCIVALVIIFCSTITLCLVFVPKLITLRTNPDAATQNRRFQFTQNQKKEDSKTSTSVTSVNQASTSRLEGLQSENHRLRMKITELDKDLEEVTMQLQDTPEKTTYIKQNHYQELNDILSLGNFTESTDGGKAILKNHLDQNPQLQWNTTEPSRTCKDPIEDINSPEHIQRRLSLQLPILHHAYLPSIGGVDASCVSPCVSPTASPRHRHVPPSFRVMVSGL
pIC50: −log10 of the molar value.
Measurement Kind: pIC50

Note to self: pIC50 of N[C@H]1C[C@@H](C(=O)O)CC1=C(F)F with GABAB receptor (Rattus norvegicus) was < 4.00

---

Target System: UniProt P48065
Sequence (P48065 whole entry): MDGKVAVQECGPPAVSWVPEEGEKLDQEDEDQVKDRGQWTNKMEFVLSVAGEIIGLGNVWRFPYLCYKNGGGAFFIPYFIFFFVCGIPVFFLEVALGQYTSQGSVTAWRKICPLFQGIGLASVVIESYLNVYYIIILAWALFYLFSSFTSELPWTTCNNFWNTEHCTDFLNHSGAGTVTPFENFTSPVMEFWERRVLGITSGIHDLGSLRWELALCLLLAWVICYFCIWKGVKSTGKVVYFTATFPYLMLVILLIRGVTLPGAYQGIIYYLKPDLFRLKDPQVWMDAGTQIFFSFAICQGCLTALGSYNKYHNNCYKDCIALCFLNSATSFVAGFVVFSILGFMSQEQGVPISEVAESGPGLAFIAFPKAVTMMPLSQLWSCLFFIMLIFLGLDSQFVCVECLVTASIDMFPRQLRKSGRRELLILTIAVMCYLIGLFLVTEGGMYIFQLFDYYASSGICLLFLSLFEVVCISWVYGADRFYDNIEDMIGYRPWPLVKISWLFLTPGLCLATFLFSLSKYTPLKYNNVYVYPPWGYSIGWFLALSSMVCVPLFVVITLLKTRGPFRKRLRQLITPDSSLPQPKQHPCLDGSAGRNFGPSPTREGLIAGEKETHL
Protocol Notes: [3H]GABA uptake at human GABA transporters, tsA201 cells
pIC50: −log10 of the molar value.
Measurement Kind: pIC50

Entry N[C@H]1C[C@@H](C(=O)O)CC1=C(F)F [CPP-115] , pIC50 reported as < 3.00
